B1: Gamma-crystallin S, residues 96 to 176; numbered along this chain, P22914 (parent)
chain: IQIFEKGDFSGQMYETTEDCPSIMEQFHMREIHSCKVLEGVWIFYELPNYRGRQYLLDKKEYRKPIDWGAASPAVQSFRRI

Variants of: B1
Assay: abundance fitness (aPCA) (normalised: wild type 0, dead -1); higher = more abundant; growth selection in yeast, the domain comes from the species named
Conditions: Homo sapiens
Where abundance fitness equals or exceeds -0.05, the correct label is 1; where it does not, the label is 0.

>>> class_label("IQIFEKGDFSGQMYETTEDCPSIMEQFHMREIHSCKVLEGVWIVYELPNYRGRQYLLDKKEYRKPIDWGAASPAVQSFRRI")
1
>>> class_label("IQIFEKGDFSGQMIETTEDCPSIMEQFHMREIHSCKVLEGVWIFYELPNYRGRQYLLDKKEYRKPIDWGAASPAVQSFRRI")
1
>>> class_label("IQIFEKGDFSGQMYETTEDCPSIMEQFHMREIHSCKVLEGVWIFYELPNYRGRQYLLDKKEYRKPIDWGAASPAVQSKRRI")
0
>>> class_label("IQIFEKGDFSGQMYETTEDCPSIMEQFHMREIHSCKVLERVWIFYELPNYRGRQYLLDKKEYRKPIDWGAASPAVQSFRRI")
0

Ask | State whether the measured abundance fitness reaches -0.05, counting equality as reaching it, for `IQIFEKGDFSGQMYETTEDCPSIMEQFHMREIHSCKVLEGVEIFYELPNYRGRQYLLDKKEYRKPIDWGAASPAVQSFRRI`
Reply | 0

Ask | State whether the measured abundance fitness reaches -0.05, counting equality as reaching it, for `IQIFEKGDFSGQMYETTEDCPSIMEQFHMREIHSCKVLEGVWIFYELPNRRGRQYLLDKKEYRKPIDWGAASPAVQSFRRI`
Reply | 0

Ask | State whether the measured abundance fitness reaches -0.05, counting equality as reaching it, for `IQIFEKGDFSGQMYETTEDCPSIMEQFHMREIHSCKVLEGVWIFYELPNYRTRQYLLDKKEYRKPIDWGAASPAVQSFRRI`
Reply | 0

Ask | State whether the measured abundance fitness reaches -0.05, counting equality as reaching it, for `IQLFEKGDFSGQMYETTEDCPSIMEQFHMREIHSCKVLEGVWIFYELPNYRGRQYLLDKKEYRKPIDWGAASPAVQSFRRI`
Reply | 1

Ask | State whether the measured abundance fitness reaches -0.05, counting equality as reaching it, for `IQIFEKGDFSGQMYETTEDCPSIMEQFHMREIHSCKVLEGVWIFYELPFYRGRQYLLDKKEYRKPIDWGAASPAVQSFRRI`
Reply | 1

Ask | State whether the measured abundance fitness reaches -0.05, counting equality as reaching it, for `IQIFEKGDDSGQMYETTEDCPSIMEQFHMREIHSCKVLEGVWIFYELPNYRGRQYLLDKKEYRKPIDWGAASPAVQSFRRI`
Reply | 0

Ask | State whether the measured abundance fitness reaches -0.05, counting equality as reaching it, for `IQIFEKGDFSGQMYETTEDCPSIMEQVHMREIHSCKVLEGVWIFYELPNYRGRQYLLDKKEYRKPIDWGAASPAVQSFRRI`
Reply | 1
